Each entry below lists one item and its recorded CC50 value.
- Test system: H1-HeLa cells
- assay_overview: Cytotoxicity in mock-infected cells of the antirhinoviral assay (XTT)
- Assay type: cell-based
- condition_details: table line HRV-1A

Below, 3 compounds whose answers are already recorded.
{"columns": ["smiles_notation", "CC50"],
 "data": [
  ["C#CC[C@H](NC(=O)c1ccc(-c2ccccc2C(F)(F)F)[nH]1)C(=O)N[C@H](/C=C/C(=O)OCC)C[C@@H]1CCNC1=O", "> 10 µM"],
  ["CCOC(=O)/C=C/[C@H](C[C@@H]1CCNC1=O)NC(=O)[C@H](Cc1ccccc1)NC(=O)c1ccc(-c2ccccc2C(F)(F)F)[nH]1", "> 1 µM"],
  ["C#CC[C@H](CC(=O)c1ccc(-c2ccccc2C(F)(F)F)[nH]1)C(=O)N[C@H](/C=C/C(=O)OCC)C[C@@H]1CCNC1=O", "> 10 µM"]
]}

// returns reported CC50 for input CCOC(=O)/C=C/[C@H](C[C@@H]1CCNC1=O)NC(=O)[C@H](Cc1ccccc1)NC(=O)c1ccc(-c2cccc3ccccc23)[nH]1
> 10 µM

====

- assay_overview: Cytotoxicity in mock-infected cells of the antirhinoviral assay (XTT)
- Type: cell-based
- condition_details: human, H1-HeLa cells, table line HRV-14
readout_label: CC50 at 2 days

Some compounds with recorded CC50 at 2 days:
{"columns": ["compound", "CC50 at 2 days"],
 "data": [
  ["O=C1OCC/C1=C\\[C@H](C[C@@H]1CCNC1=O)NC(=O)[C@@H](CC(=O)c1ccc(-c2cccc3ccccc23)[nH]1)Cc1ccc(F)cc1", "> 10 µM"],
  ["CCOC(=O)/C=C/[C@H](C[C@@H]1CCNC1=O)NC(=O)[C@@H](CC(=O)c1ccc[nH]1)Cc1ccccc1", "> 10 µM"],
  ["CCOC(=O)/C=C/[C@H](CCC(N)=O)NC(=O)[C@@H](CC(=O)c1ccc(-c2ccccc2C(F)(F)F)[nH]1)Cc1ccccc1", "> 10 µM"]
]}

// CC50 at 2 days lookup, key: CCOC(=O)/C=C/[C@H](CCC(N)=O)NC(=O)[C@H](Cc1ccccc1)NC(=O)c1ccc(-c2cccnc2)[nH]1
> 10 µM

Record: CCOC(=O)/C=C/[C@H](CCC(N)=O)NC(=O)[C@H](Cc1ccccc1)NC(=O)c1ccc(C(C)CC(F)(F)F)[nH]1 (stereo partly drawn)
> 10 µM

// next record CCOC(=O)/C=C/[C@H](CCC(N)=O)NC(=O)[C@H](Cc1ccccc1)N(C)C(=O)c1ccc(-c2ccccc2C(F)(F)F)[nH]1
> 10 µM

====

Entries and their kinact/KI
- target_desc: rhinovirus 3C protease, serotype 14 (Human rhinovirus 14)
- Construct: Recombinant rhinovirus 3C proteases; made in house
- assay_overview: Inhibition of rhinovirus 3C protease (FRET assay, enzyme start)
- Format: biochemical
- condition_details: HRV-14 3C protease, progress curves, read-out: Kobs/I
Write the value in M⁻¹ s⁻¹ as a bare number.

Observe how each entry below is paired with its result.
{"columns": ["compound", "target_desc", "readout_label", "observed_result"],
 "data": [
  ["CCOC(=O)/C=C/[C@H](CCC(N)=O)NC(=O)[C@H](Cc1ccccc1)NC(=O)c1ccc(-c2cc(Cl)ccc2OC)[nH]1", "rhinovirus 3C protease, serotype 14 (Human rhinovirus 14)", "kinact/KI", 5860],
  ["CCOC(=O)/C=C/[C@H](C[C@@H]1CCNC1=O)NC(=O)CCC(C)=O", "rhinovirus 3C protease, serotype 14 (Human rhinovirus 14)", "kinact/KI", 85],
  ["C#CC[C@H](CC(=O)c1ccc(-c2ccccc2Cl)[nH]1)C(=O)N[C@H](/C=C/C(=O)OCC)C[C@@H]1CCNC1=O", "rhinovirus 3C protease, serotype 14 (Human rhinovirus 14)", "kinact/KI", 33000],
  ["CCOC(=O)/C=C/[C@H](C[C@@H]1CCNC1=O)NC(=O)[C@H](Cc1ccccc1)NC(=O)c1ccc(-c2cccc3ccccc23)[nH]1", "rhinovirus 3C protease, serotype 14 (Human rhinovirus 14)", "kinact/KI", 690000],
  ["C#CC[C@H](NC(=O)c1ccc(-c2ccccc2C(F)(F)F)[nH]1)C(=O)N[C@H](/C=C/C(=O)OCC)CCC(N)=O", "rhinovirus 3C protease, serotype 14 (Human rhinovirus 14)", "kinact/KI", 7100]
]}

If you can, please state the reported kinact/KI value of CCOC(=O)/C=C/[C@H](C[C@@H]1CCNC1=O)NC(=O)[C@H](Cc1ccccc1)NC(=O)c1ccc[nH]1 .
5460

And for CCOC(=O)/C=C/[C@H](C[C@@H]1CCNC1=O)NC(=O)[C@@H](CC(=O)c1ccc(-c2ccccc2C(F)(F)F)[nH]1)Cc1ccccc1 ?
125000

Can you handle CCOC(=O)/C=C/[C@H](CCC(N)=O)NC(=O)[C@H](Cc1ccccc1)NC(=O)c1ccc(-c2cccnc2)[nH]1 next?
1300

Would you kindly repeat that for CCOC(=O)/C=C/[C@H](CCC(N)=O)NC(=O)[C@H](Cc1ccccc1)NC(=O)c1ccc(-c2cccc3c2OCO3)[nH]1 ?
2700

Request: CCOC(=O)/C=C/[C@H](CCC(N)=O)NC(=O)[C@H](Cc1ccccc1)NC(=O)c1ccc(-c2ccccc2Br)[nH]1
34600

Also check CCC[C@H](NC(=O)c1ccc(-c2ccccc2C(F)(F)F)[nH]1)C(=O)N[C@H](/C=C/C(=O)OCC)CCC(N)=O
3140

Same question for CCOC(=O)/C=C/[C@H](CCC(N)=O)NC(=O)[C@H](Cc1ccccc1)NC(=O)c1ccc(-c2cccc(Cl)c2Cl)[nH]1 please.
20300

Can you check CCOC(=O)/C=C/[C@H](C[C@@H]1CCNC1=O)NC(=O)CCC(=O)c1cccc2ccccc12 next?
629

Same question, CCOC(=O)/C=C/[C@H](CCC(N)=O)NC(=O)[C@H](Cc1ccccc1)NC(=O)c1ccc(-c2cccc(C(C)C)c2)[nH]1 this time
2130

====

- target_desc: rhinovirus 3C protease, serotype 14 (Human rhinovirus 14, UniProt P03303)
- Construct: Recombinant rhinovirus 3C proteases; made in house
- Sequence (P03303 1538-1719): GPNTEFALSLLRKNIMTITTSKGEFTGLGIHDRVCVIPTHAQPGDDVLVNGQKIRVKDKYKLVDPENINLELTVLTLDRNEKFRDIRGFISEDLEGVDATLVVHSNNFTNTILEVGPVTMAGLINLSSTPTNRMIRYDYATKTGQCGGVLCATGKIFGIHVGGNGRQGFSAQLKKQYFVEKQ
- assay_overview: Inhibition of rhinovirus 3C protease (FRET assay, enzyme start)
- Assay type: biochemical
- condition_details: HRV-14 3C protease, progress curves, read-out: Kobs/I
In this section, each of the molecules is paired with its reported kinact/KI.
# value in M⁻¹ s⁻¹; strip the unit string

{"columns": ["molecule", "quantity_unit", "kinact/KI"],
 "data": [
  ["O=C1OCC/C1=C\\[C@H](C[C@@H]1CCNC1=O)NC(=O)C(CC(=O)c1ccc[nH]1)Cc1ccc(F)cc1 (some centres unmarked)", "M⁻¹ s⁻¹", 520]
]}

kinact/KI lookup needed for CCOC(=O)/C=C/[C@H](C[C@@H]1CCNC1=O)NC(=O)[C@@H](CC(=O)c1ccc[nH]1)Cc1ccccc1 , thanks.
2500

What would you report for CCOC(=O)/C=C/[C@H](CCC(N)=O)NC(=O)[C@H](Cc1ccccc1)NC(=O)c1ccc(-c2cncc3ccccc23)[nH]1 ?
12700

What do you get for CCOC(=O)/C=C/[C@H](CCC(N)=O)NC(=O)[C@H](Cc1ccccc1)NC(=O)c1ccc(-c2ccccc2C)[nH]1 ?
12600

Could you do the same for CCOC(=O)/C=C/[C@H](CCC(N)=O)NC(=O)[C@H](Cc1ccccc1)NC(=O)c1ccc(-c2cccc3ccccc23)[nH]1 , please?
30800

====

- Test system: HRV-14
- assay_overview: Antirhinoviral H1-HeLa cell culture assay (XTT cell protection)
- Assay type: cell-based, human rhinovirus
- condition_details: Rhinovirus B, HRV14, H1-HeLa, HRV-14, H1-HeLa cells
readout_label: EC50 (nM)
A number alone suffices; assume nM.

Recorded EC50, per entry:
{"columns": ["smiles_notation", "quantity_unit", "observed_result"],
 "data": [
  ["O=C1OCC/C1=C\\[C@H](C[C@@H]1CCNC1=O)NC(=O)[C@@H](CC(=O)c1ccc(-c2cccc3ccccc23)[nH]1)Cc1ccc(F)cc1", "nM", 212],
  ["CCOC(=O)/C=C/[C@H](CCC(N)=O)NC(=O)[C@H](Cc1ccccc1)NC(=O)c1ccc(-c2cccc(Cl)c2Cl)[nH]1", "nM", 202]
]}

Pending molecule:
# EC50 lookup, item CCOC(=O)/C=C/[C@H](CCC(N)=O)NC(=O)[C@H](Cc1ccccc1)NC(=O)c1ccc(-c2ccccc2OC)[nH]1
646

====

- Tested on: H1-HeLa cells
- assay_overview: Cytotoxicity in mock-infected cells of the antirhinoviral assay (XTT)
- Format: cell-based
- condition_details: table line HRV-2
readout_label: CC50

{"columns": ["molecule", "target_desc", "CC50"],
 "data": [
  ["C#CC[C@H](CC(=O)c1ccc(-c2ccccc2Cl)[nH]1)C(=O)N[C@H](/C=C/C(=O)OCC)C[C@@H]1CCNC1=O [Compound 38]", "H1-HeLa cells", "> 10 µM"]
]}

// below: CC50 requested for another molecule
Quick check: CC50 on H1-HeLa cells, item C#CC[C@H](CC(=O)c1ccc(-c2ccccc2C)[nH]1)C(=O)N[C@H](/C=C/C(=O)OCC)C[C@@H]1CCNC1=O [Compound 39] ?
> 10 µM
